Reference for the values: patent US20220281965A1

Reported Kd values follow for various binders
Target: T1, mature recombinant human GDF-15 with an N-terminal Flag and His tag, biotinylated (human, UniProt Q99988 197-308, chemically biotinylated with EZ link Sulfo-NHS-LC-Biotin, sites not stated)
T1 construct: not shown: N-terminal Flag and His tags
T1 sequence: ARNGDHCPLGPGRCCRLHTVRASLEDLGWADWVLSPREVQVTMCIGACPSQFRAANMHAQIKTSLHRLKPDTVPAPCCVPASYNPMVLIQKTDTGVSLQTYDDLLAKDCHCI
Experiment: SPR Biacore 8K, 25 C, biotinylated GDF-15 on streptavidin C1 chip, Fab as analyte
Give a bare numeral; the unit nM is implied.

Examples from the recorded data:
AB1170243 Fab (Fab, V domains shown, Fab of the humanized antibody, expressed as in Spooner et al. 2015) VH: QVQLVQSGSELKKPGASVKVSCKASGYTFTDYNMDWIRQSPGKGLEWIGDINPNNGGTFYNQKFKDRATLTVDKSTSTAYMELRSLRSDDTAVYYCAREEKLYFGLMDYWGQGTTVTVSS VL: DIQMTQSPSSLSASVGDRVTITCRASENIYSYLAWYQQKPGKAPKLLVYNAKTLAEGVPSRFSGSGSGIDFTLTISSLQPEDFATYYCQHQYGSPPTFGQGTKLEIK ... 0.09
AB1520085 Fab (Fab, V domains shown, Fab of the anti-mouse GDF-15 mouse IgG1, expressed as in Spooner et al. 2015) VH: QVQLQQPGAELVMPGASVKMSCKASGYTFTDYWMHWVKQRPGQGLEWIGVIDTSESYTSYNQKFKGKATLTVDESSSTAYMQLSSLTSEDSAVYFCARGGTTVVLDYWGQGTTLTVSS VL: DIVMTQSQKFMSTSVGDRVSVTCKASQNVGTAVAWYQKKPGQSPKALIYSASTRYTGVPDRFTGSGSGTDFTLTISNVQSEDLAEYFCQQYSSSPWTFGGGTKLELK ... 1.64

Q. Item AB1170249 Fab (Fab, V domains shown, Fab of the humanized antibody, expressed as in Spooner et al. 2015) VH: QVQLQESGPGLLKPSQTLSLTCTVSGFSLSTYGMGVGWIRQPLGKGLEWLANIWWNDDKYYNSALKSRLTISKDTSKNQVSLKLSSVTAADTAVYYCAQMAYSWFAYWGQGTLVTVSS VL: DIQMTQSPSFLSASVGDRVTITCKASQNMDTNVAWYQQKPGQPPKALIYSASYRYSGVPDRFSGSGSGTDFTLTISSLQAEDVAVYYCQQYNSYPFTFGQGTKLEIK has what recorded Kd?
A. 3.13
